METHOD_SUMMARY: Water solubility of FuBIG salts, UV absorbance of saturated aqueous solutions
COND: saturated aqueous solution, UV absorbance at 368 nm
Solubility(FuBIG cation concentration, M) values by entry

Example cases with answers are listed next.
> print(dat)
                                smiles.code  experimental.value
1     N=C(N)NN=Cc1ccc(C=NNC(=N)N)o1.O=S(O)O     1.4 (2)×10^−3 M
2          Cl.N=C(N)NN=Cc1ccc(C=NNC(=N)N)o1          0.74 (6) M
3  N=C(N)NN=Cc1ccc(C=NNC(=N)N)o1.O.O.O.O.O=C(O)O     9.3 (4)×10^−3 M

Q. # lookup: Solubility(FuBIG cation concentration, M) of `N=C(N)NN=Cc1ccc(C=NNC(=N)N)o1.O.O.O=[N+]([O-])O.O=[N+]([O-])O`
A. 3.3 (2)×10^−2 M
